# Assay Name: Pharmacokinetic study after single oral and IV administration of KD025 to rats
# Assay type: in vivo, Sprague–Dawley rats
# Test Context: Sprague-Dawley, rat, plasma, iv, 2 mg/kg, IV 2 mg/kg, n = 5
# Description: The feasibility of the developed LC/MS–MS method was examined by performing pharmacokinetic studies of KD025 in rats. […] For sample preparation, 100 μL of IS in acetonitrile solution (250 ng/mL) was added to 50 μL of plasma samples, followed by vortex-mixing in 1 min for deproteinization. […] The plasma peak concentration (Cmax) and time to reach Cmax (Tmax) were directly determined from each individual plasma concentration–time profile. […]

Smiles Str: CC(C)NC(=O)COc1cccc(-c2nc(Nc3ccc4[nH]ncc4c3)c3ccccc3n2)c1
AUC(0-inf) / ng·h/mL: 812
